- target-desc: p53-MDM2 interaction (GST-MDM2 protein aa 23-117 / biotinylated p53 wt peptide) (Homo sapiens (Human), UniProt Q00987)
- assay-remarks: MDM2-p53 Inhibition AlphaScreen
- measurement-context: 20 nM GST-MDM2 (aa 23-117), 20 nM biotinylated p53 wt peptide
readout-name: IC50 (nM)
Express the result in nM but write the number alone.

Examples with answers:
COc1cc(C(=O)O)ccc1N1CC[C@H]2[C@@H](C1=O)[C@H](c1cccc(Cl)c1F)[C@]1(C(=O)Nc3cc(Cl)ccc31)N2CC1CC1C (stereo partly drawn) [Compound I-194]    114
O=C(O)CNc1ccc(N2CC[C@H]3[C@@H](C2=O)[C@H](c2cccc(Cl)c2F)[C@]2(C(=O)Nc4cc(Cl)ccc42)N3CC2CC2)cc1 [Compound I-306]    67

For the compound shown here, COC(=O)c1ccc(N2CC[C@H]3[C@@H](C2=O)[C@H](c2cccc(Cl)c2F)[C@]2(C(=O)Nc4cc(Cl)ccc42)N3CC2CC2C)cc1 (stereo partly drawn) [Compound I-69] , give the reported IC50. 447

###

- target-desc: p53-MDM2 interaction (GST-MDM2 protein aa 23-117 / biotinylated p53 wt peptide) (Homo sapiens (Human), UniProt Q00987)
- assay-remarks: MDM2-p53 Inhibition AlphaScreen
- measurement-context: 20 nM GST-MDM2 (aa 23-117), 20 nM biotinylated p53 wt peptide
- Text: MDM2-p53 Inhibition AlphaScreen
Entries and their pIC50 values follow.
// pIC50: -log10(molar conc.)

O=C(O)c1ccc(N2CC[C@H]3[C@@H](C2=O)[C@H](c2cccc(Cl)c2F)[C@]2(C(=O)Nc4cc(Cl)ccc42)N3CC2CCC2)cc1    7.57

For the compound shown here, `CC(C)(C)CN1[C@H]2CCNC(=O)[C@H]2[C@H](c2cccc(Cl)c2F)[C@]12C(=O)Nc1cc(Cl)ccc12` , give the reported pIC50. 6.82

For the compound shown here, `CCOc1cccc(CN2[C@H]3CCN(c4ccc(C(=O)O)cc4[N+](=O)[O-])C(=O)[C@H]3[C@H](c3cccc(Cl)c3F)[C@]23C(=O)Nc2cc(Cl)ccc23)c1` , give the reported pIC50. 7.80

For the compound shown here, `O=C(O)c1ccc(N2CC[C@H]3[C@@H](C2=O)[C@H](c2cccc(Cl)c2F)[C@]2(C(=O)Nc4cc(Cl)ccc42)N3CC2CC2)c(O)c1` , give the reported pIC50. 7.31

For the compound shown here, `Cc1cc(N2C[C@H]3[C@@H](C2=O)[C@H](c2cccc(Cl)c2F)[C@]2(C(=O)Nc4cc(Cl)ccc42)N3CC2CC2)ccc1C(=O)O` , give the reported pIC50. 8.30

For the compound shown here, `O=C(O)c1ccc(N2C[C@H]3[C@@H](C2=O)[C@H](c2cccc(Br)c2F)[C@]2(C(=O)Nc4cc(Cl)ccc42)N3CC2CC2)cc1` , give the reported pIC50. 8.05

For the compound shown here, `COc1cc(N2C[C@H]3[C@@H](C2=O)[C@H](c2cccc(Br)c2F)[C@]2(C(=O)Nc4cc(Cl)ccc42)N3CC2CC2)ccc1C(=O)O` , give the reported pIC50. 8.05

For the compound shown here, `O=C(O)c1ccc(N2C[C@H]3[C@@H](C2=O)[C@H](c2cccc(Cl)c2F)[C@]2(C(=O)Nc4cc(Cl)ccc42)N3CC2CCC2)cc1` , give the reported pIC50. 8.15

For the compound shown here, `O=C(O)c1ccc(N2C[C@H]3[C@@H](C2=O)[C@H](c2cccc(Cl)c2F)[C@]2(C(=O)Nc4cc(Cl)ccc42)N3CCC(F)(F)F)cc1` , give the reported pIC50. 7.92

For the compound shown here, CC1CC1CN1[C@H]2CCN(c3ccc(C(=O)O)cc3F)C(=O)[C@H]2[C@H](c2cccc(Cl)c2F)[C@]12C(=O)Nc1cc(Cl)ccc12 (stereo partly drawn) , give the reported pIC50. 7.35

For the compound shown here, `COc1cc(C(=O)O)ccc1N1C[C@H]2[C@@H](C1=O)[C@H](c1cccc(Cl)c1F)[C@]1(C(=O)Nc3cc(Cl)ccc31)N2CC1CC1` , give the reported pIC50. 7.51

For the compound shown here, `CCOc1cccc(CN2[C@H]3CN(Cc4ccc(C(=O)O)cc4)C(=O)[C@H]3[C@H](c3cccc(Cl)c3F)[C@@]23C(=O)Nc2cc(Cl)ccc23)c1` , give the reported pIC50. 6.31

###

- target-desc: p53-MDM2 interaction (GST-MDM2 protein aa 23-117 / biotinylated p53 wt peptide) (Homo sapiens (Human))
- assay-remarks: MDM2-p53 Inhibition AlphaScreen
- measurement-context: 20 nM GST-MDM2 (aa 23-117), 20 nM biotinylated p53 wt peptide
Entries and their pIC50 values follow.
// pIC50: -log10(molar conc.)

O=C(NO)c1ccc(N2C[C@H]3[C@@H](C2=O)[C@H](c2cccc(Cl)c2F)[C@]2(C(=O)Nc4cc(Cl)ccc42)N3CC2CC2)cc1 [Compound I-285]    8.10
O=C1NCC[C@H]2[C@@H]1[C@H](c1cccc(Cl)c1F)[C@]1(C(=O)Nc3cc(Br)ccc31)N2CC1CC1 [Compound I-21]    7.19
O=C(O)c1ccc(N2C[C@H]3[C@@H](C2=O)[C@H](c2ccnc(Cl)c2F)[C@]2(C(=O)Nc4cc(Cl)ccc42)N3CC2CC2)cc1 [Compound I-244]    8.40
CN(O)C(=O)c1ccc(N2CC[C@H]3[C@@H](C2=O)[C@H](c2cccc(Cl)c2F)[C@]2(C(=O)Nc4cc(Cl)ccc42)N3CC2CC2)cc1 [Compound I-276]    7.34
CCOc1cccc(CN2[C@H]3CCN(c4ccc(C(=O)O)cc4)C(=O)[C@H]3[C@H](c3cccc(Cl)c3F)[C@]23C(=O)Nc2cc(Cl)ccc23)c1 [Compound I-185]    8.52
N#Cc1ccc(N2CC[C@H]3[C@@H](C2=O)[C@H](c2cccc(Cl)c2F)[C@]2(C(=O)Nc4cc(Cl)ccc42)N3CC2CC2)cc1 [Compound I-86]    6.80
O=C(O)c1ccc(N2CC[C@H]3[C@@H](C2=O)[C@H](c2cccc(Cl)c2F)[C@]2(C(=O)Nc4cc(Cl)ccc42)N3CC2CC2)c([N+](=O)[O-])c1 [Compound I-192]    7.40
O=C(O)c1ccc(N2CC[C@H]3[C@@H](C2=O)[C@H](c2cccc(Cl)c2F)[C@]2(C(=O)Nc4cc(Cl)ccc42)N3CC2CC2)cn1 [Compound I-183]    8.00

// below: pIC50 requested for another compound
For the compound shown here, NC(=O)c1ccc(N2C[C@H]3[C@@H](C2=O)[C@H](c2cccc(Cl)c2F)[C@]2(C(=O)Nc4cc(Cl)ccc42)N3CC2CC2)cc1C(F)(F)F [Compound I-281] , give the reported pIC50. 7.17

###

- target-desc: p53-MDM2 interaction (GST-MDM2 protein aa 23-117 / biotinylated p53 wt peptide) (Homo sapiens (Human), UniProt Q00987)
- assay-remarks: MDM2-p53 Inhibition AlphaScreen
- measurement-context: 20 nM GST-MDM2 (aa 23-117), 20 nM biotinylated p53 wt peptide
Please map values of IC50 to classes as shown: group 1: < 5 nM; group 2: ≥ 5 nM and < 100 nM; group 3: ≥ 100 nM

Using the reported IC50, which band applies to `O=C(O)c1cccc(N2CC[C@H]3[C@@H](C2=O)[C@H](c2cccc(Cl)c2F)[C@]2(C(=O)Nc4cc(Cl)ccc42)N3CC2CC2)c1` ? group 3

Using the reported IC50, which band applies to `CC(C)(C)CN1[C@H]2CCN(Cc3ccc(C(=O)O)cc3)C(=O)[C@H]2[C@H](c2cccc(Cl)c2F)[C@]12C(=O)Nc1cc(Cl)ccc12` ? group 3

Using the reported IC50, which band applies to `O=CNc1ccc(N2CC[C@H]3[C@@H](C2=O)[C@H](c2cccc(Cl)c2F)[C@]2(C(=O)Nc4cc(Cl)ccc42)N3CC2CC2)cc1` ? group 2

Using the reported IC50, which band applies to `COCc1cc(N2CC[C@H]3[C@@H](C2=O)[C@H](c2cccc(Cl)c2F)[C@]2(C(=O)Nc4cc(Cl)ccc42)N3CC2CC2)ccn1` ? group 3

Using the reported IC50, which band applies to `CCOc1cccc(CN2[C@H]3CN(c4ccc(C(=O)O)cc4)C(=O)[C@H]3[C@H](c3cccc(Cl)c3F)[C@]23C(=O)Nc2cc(Cl)ccc23)c1` ? group 1

Using the reported IC50, which band applies to `CCOc1cccc(CN2[C@H]3CN(c4ccc(C(=O)NO)cc4)C(=O)[C@H]3[C@H](c3cccc(Cl)c3F)[C@]23C(=O)Nc2cc(Cl)ccc23)c1` ? group 1

Using the reported IC50, which band applies to `O=C(NO)c1ccc(N2CC[C@H]3[C@@H](C2=O)[C@H](c2cccc(Cl)c2F)[C@]2(C(=O)Nc4cc(Cl)ccc42)N3CC2CC2)cc1` ? group 2

Using the reported IC50, which band applies to `CCOc1cccc(CN2[C@H]3CN(c4ccc(C(=O)O)cc4)C(=O)[C@H]3[C@H](c3cccc(Cl)c3F)[C@]23C(=O)Nc2nc(Cl)ccc23)c1` ? group 1

Using the reported IC50, which band applies to `NC(=O)c1ccc(N2C[C@H]3[C@@H](C2=O)[C@H](c2ccnc(Cl)c2F)[C@]2(C(=O)Nc4cc(Cl)ccc42)N3CC2CC2)cc1` ? group 2

Using the reported IC50, which band applies to `O=C(O)c1ccc(CN2C[C@H]3[C@@H](C2=O)[C@H](c2cccc(Cl)c2F)[C@]2(C(=O)Nc4cc(Cl)ccc42)N3CC2CC2)cc1` ? group 2
